// data source = ChEMBL document CHEMBL3045452

System: Plutella xylostella
Experiment: Induction of response in mated female Plutella xylostella (diamondback moth) assessed as flying moth level at 10 uL measured after 10 min by wind tunnel bioassays (Rvb hexane = 5%)
Assay type: functional
measure name: Activity (%)
Enter your answer as a number in %; do not include the unit.

Some molecules with recorded Activity:
molecule | Activity (%)
CCCCCCOC(C)=O [HEXYL ACETATE] | 5
CC/C=C\CCO [CIS-3-HEXENOL] | 40
CCC/C=C/C=O | 55
CCCCCCO | 15
CC/C=C\CCOC(C)=O [(Z)-hex-3-en-1-yl acetate] | 60
CCCCCC=O | 30

Now for the molecule whose Activity we want.
Quick note, Activity for C=CC(O)CCC (configuration not stated) landed at 10
